Data credit: patent EP4596580A1

# Target desc: T1, hFc-human LIGHT (human)
# T1 construct: also called hFc-huLIGHT
# Procedure text: competition ELISA, LTβR-His coated, hFc-huLIGHT added
Each entry below carries its reported IC50.
Just the number in nM, nothing appended.

Binder	Quantity	Unit info	Assay value
hum_LT-m37-11 (antibody, human IgG4, V domains shown, humanized from LT-m37) VH: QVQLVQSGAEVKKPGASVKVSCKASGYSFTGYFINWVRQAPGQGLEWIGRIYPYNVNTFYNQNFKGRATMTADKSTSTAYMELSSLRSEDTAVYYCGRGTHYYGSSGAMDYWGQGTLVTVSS VL: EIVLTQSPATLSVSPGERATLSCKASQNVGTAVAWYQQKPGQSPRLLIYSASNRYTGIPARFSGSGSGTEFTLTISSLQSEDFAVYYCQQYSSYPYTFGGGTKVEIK	IC50	nM	0.0864

q: Could you tell me which IC50 is on file for hum_LT-m37-6 (antibody, human IgG4, V domains shown, humanized from LT-m37) VH: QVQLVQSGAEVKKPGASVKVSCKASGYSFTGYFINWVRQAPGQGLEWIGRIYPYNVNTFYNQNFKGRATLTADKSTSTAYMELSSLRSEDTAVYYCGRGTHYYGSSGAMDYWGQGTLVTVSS VL: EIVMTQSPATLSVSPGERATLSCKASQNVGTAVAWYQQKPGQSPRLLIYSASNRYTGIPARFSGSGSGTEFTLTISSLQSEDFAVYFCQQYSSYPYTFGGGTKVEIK ?
a: 0.0753
